molecular target: KRas G12S (Homo sapiens, UniProt P01116, G12S); construct: Biotinylated KRas (corresponding to amino acids 1-169, produced at Accelegan Inc.); biotin (biotinylated); purchased Accelegan Inc; assay: KRas binding assay, TR-FRET displacement of Cy5 labelled tracer; details: 60-minute incubation at room temperature, 1% DMSO, pH 7.5
Sequence (P01116 1-169 isoform P01116-2 G12S): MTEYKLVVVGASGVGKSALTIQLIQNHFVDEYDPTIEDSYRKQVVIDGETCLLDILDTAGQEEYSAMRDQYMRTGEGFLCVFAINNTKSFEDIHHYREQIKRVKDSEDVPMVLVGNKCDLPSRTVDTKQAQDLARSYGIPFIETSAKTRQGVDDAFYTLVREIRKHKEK
Recorded IC50 determines the group label, using small value = under 20 nM, mid value = from 20 nM up to 200 nM, large value = 200 nM and over

In: Hey, which category is CN(C)Cc1ccn(C(=O)C2CCCN(c3nc(OC[C@@]45CCCN4C[C@H](F)C5)nc4c(F)c(-c5ccc(F)c6sc(N)c(C#N)c56)c(Cl)cc34)CC2)n1 (some centres unmarked) in, do you know?
Out: small value

In: Hey, which category is `CN(CCCC(=O)N(C)c1cccnc1)c1nc(OC[C@@]23CCCN2C[C@H](F)C3)nc2c(F)c(-c3ccc(F)c4sc(N)c(C#N)c34)c(Cl)cc12` in, do you know?
Out: small value

In: Hey, which category is `CCc1c(F)ccc2cc(O)cc(-c3ncc4c(N5CCC(C(=O)n6cc(C)cn6)CC5)nc(OC[C@@]56CCCN5C[C@H](F)C6)nc4c3F)c12` in, do you know?
Out: mid value

In: Hey, which category is Cc1ccn(C(=O)C2CCCCN(c3nc(OC[C@@]45CCCN4C[C@H](F)C5)nc4c(F)c(-c5ccc(F)c6sc(N)c(C#N)c56)c(Cl)cc34)C2)n1 (some centres unmarked) in, do you know?
Out: small value

In: Hey, which category is `CCc1c(F)ccc2cc(O)cc(-c3ncc4c(N5CCC(C(=O)n6nc(C)cc6C)CC5)nc(OC[C@@]56CCCN5C[C@H](F)C6)nc4c3F)c12` in, do you know?
Out: large value

In: Hey, which category is `COC(=O)[C@H]1CCN(c2nc(OCC34CCCN3CCC4)nc3c(F)c(-c4cccc5cccc(F)c45)ncc23)C[C@H]1O` in, do you know?
Out: large value

In: Hey, which category is CCc1c(F)ccc2cc(O)cc(-c3ncc4c(N5CC(C(=O)n6ccc(C)n6)C(C)(C)C5)nc(OC[C@@]56CCCN5C[C@H](F)C6)nc4c3F)c12 (some centres unmarked) in, do you know?
Out: large value

In: Hey, which category is `CCc1c(F)ccc2cc(O)cc(-c3ncc4c(N5CCC(C(=O)n6ccc(C(C)C)n6)CC5)nc(OC[C@@]56CCCN5C[C@H](F)C6)nc4c3F)c12` in, do you know?
Out: mid value

In: Hey, which category is `N#Cc1c(N)sc2c(F)ccc(-c3c(Cl)cc4c(N5CCN(S(=O)(=O)n6cnnc6)CC5)nc(OC[C@@]56CCCN5C[C@H](F)C6)nc4c3F)c12` in, do you know?
Out: mid value

In: Hey, which category is CCc1cc(O)cc2cccc(-c3c(Cl)cc4c(N5CCCC(C(=O)n6ccc(C)n6)CC5)nc(OC[C@@]56CCCN5C[C@H](F)C6)nc4c3F)c12 (some centres unmarked) in, do you know?
Out: large value

In: Hey, which category is `O=C(Oc1ccc(F)cc1)[C@@H]1[C@@H]2C[C@H]1CN(c1nc(OCC34CCCN3CCC4)nc3c(F)c(-c4cccc5cccc(F)c45)ncc13)C2` in, do you know?
Out: large value

In: Hey, which category is CCc1c(F)ccc2cc(O)cc(-c3ncc4c(NC[C@@H]5C[C@H]5C(=O)n5ccc(C)n5)nc(OC[C@@]56CCCN5C[C@H](F)C6)nc4c3F)c12 [Example 112] in, do you know?
Out: small value

In: Hey, which category is `CN(CCCC(=O)N(C)c1ccncn1)c1nc(OC[C@@]23CCCN2C[C@H](F)C3)nc2c(F)c(-c3ccc(F)c4sc(N)c(C#N)c34)c(Cl)cc12` in, do you know?
Out: small value
